Value source: paper PMC8130932

molecular target: T1, SARS-CoV-2 RBD (amino acids 340-538) on MDCK-SIAT1 cells (SARS-CoV-2 (so in the source)); assay: flow cytometry on cells; settings: one partner purified
T1 construct: also called MDCK-RBD; source: MDCK-SIAT1, stably transduced (lentiviral vector), on the cell surface
readout_kind: binding result

FB 9D (antibody, V domains shown, source: HEK293T, transfected; culture supernatant or purified) VH: QVQLVESGAEVKKPGESLKISCQGSGYRFNSYWIAWVRQMPGKGLEWMGSIFPTDSDVRYNPSFQGQVTISADKSISFAYLQWSSLKASDTAIYYCARHWASMVRGVIRASHYYGMDVWGQGTTVTVSS VL: QPVLTQPPSASGSPGQSVTISCSGASSDIGKYNYVSWYQQLPGKAPKLLIYEVTKRPSGVPDRFSGSKSGNTASLTVSGLQADDEADYYCSSYAFGGSDTRVFGGGTKLTVL; no binding
FN 8C (antibody, V domains shown, source: HEK293T, transfected; culture supernatant or purified) VH: QVQLVESGGGVVQPGRSLRLSCAASGFTFSSYGMHWVRQAPGKGLEWVAVISYDGSNKYYADTVKGRFTISRDNSKNTLYLQMNSLRAEDTAVYYCARERTYYDILTGYRHYYGMDVWGQGTTVTVSS VL: SYELTQPPSVSVAPGQTARITCGGNNIGSKSVHWYQQKPGQAPVLVVYDDSDRPSGIPERFSGSNSGNTATLTISRVEAGDEADYYCQVWDSSSDHWVFGGGTKLTVL; no binding
FD 5E (antibody, V domains shown, source: HEK293T, transfected; culture supernatant or purified) VH: EVQLVESGGVVVQPGGSLRLSCAASGFTFDDYAMHWVRQAPGKGLEWVSLISWDGGSTYYADSVKGRFTISRDNSKNSLYLQMNSLRAEDTALYYCAKDSVRFRYYYGMDVWGQGTTVTVSS VL: EIVLTQSPATLSLSPGERATLSCRASQSVSSYLAWYQQKPGQAPRLLIYDASNRATGIPARFSGSGSGTDFTLTISSLEPEDFAVYYCQQRSNWPLTFGPGTKVDIK; no binding
FJ 1C (antibody, V domains shown, source: HEK293T, transfected; culture supernatant or purified) VH: QVQLQESGPGLVKPSETLSLTCTVSGYSISSGYYWGWIRQPPGKGLEWIGSIYHSGSTYYNPSLKSRVTISVDTSKNQFSLKLSSVTAADTAVYYCARDKALLWFGELFTNLFDYWGQGTLVTVSS VL: QSALTQPASVSGSPGQSITISCTGTSSDVGGYNYVSWYQQHPGKAPKLMIYEVSNRPSGVSNRFSGSKSGNTASLTISGLQAEDEANYYCSSYTSSSTLVFGGGTKLTVL; no binding

// below: binding result requested for another binder
QUERY: Sample FJ 10B (antibody, V domains shown, source: HEK293T, transfected; culture supernatant or purified) VH: QVQLVQSGAEVKKPGESLRISCKGSGYSFTSYWISWVRQMPGKGLEWMGRIDPSDSYTNYSPSFQGHVTISADKSISTAYLQWSSLKASDTAMYYCARLDPRYGPDYYGMDVWGQGTTVTVSS VL: AIRMTQSPSSLSASVGDRVTITCRASQSISSYLNWYQQKPGKAPKLLIHAASSLQSGVPSRFSGSGSGTDFTLTMSSLQPEDFATYYCQQSYSTPLTFGGGTKVEIR — what was its binding result?
RESULT: binds
